Measured %Inh values are reported for all entries that follow.
- Tested on: EPHA8
- details: concentration: 1 μM, replicates: in singlicate; n = 1;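 also: KINOMEscan kinase panel screen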
# unit: % | format: bare number

Use the examples below as a reference point.
Cl.Cl.NC(CNC(=O)c1cc(Br)c(-c2ccnc3[nH]ccc23)s1)c1ccccc1 (centres unmarked)	24
COc1cc(Nc2ccnc3cc(-c4ccncc4)ccc23)cc(OC)c1OC.Cl	99.2
Cc1ccc(O)cc1Nc1ccnc2ccc(C(C)(C)C)cc12	98.2
COc1ccc(NC(=O)c2ccoc2)cc1-c1ccc(C(=O)NCC2CC2)cc1	1
CN(c1ccc(F)c(NC(=O)c2cccc(OC(C)(C)C#N)c2Cl)c1)c1ccc2nc(NC(=O)C3CC3)sc2n1	41
O=C(Nc1n[nH]c2nc(-c3cccc(O)c3)ccc12)C1CC1	30

Problem: Record request: %Inh value, item Cc1ccccc1CC(=O)N1CCc2cc(-c3cn(C)c4ncnc(N)c34)ccc21
Solution: 5

Problem: Record request: %Inh value, item CC(C)c1nc(-c2cccc(NS(=O)(=O)c3c(F)cccc3F)c2)c(-c2ccnc(Nc3ccc(N4CCOCC4)nc3)n2)s1.Cl
Solution: 93

Problem: Record request: %Inh value, item Cc1ccc(NC(=O)c2ccc(Cl)c(Cl)c2)cc1-c1ccc(C(=O)Nc2ccncc2)cc1
Solution: 35

Problem: Record request: %Inh value, item CNc1nccc(-c2ccc3c(N)n[nH]c3c2)n1
Solution: 18

* * *

- System: SRPK3
- details: concentration: 1 μM, replicates: in singlicate; n = 1
Measured %Inh values are reported for all entries that follow.
# unit: % | format: bare number

Cc1cccc(Nc2nc(N[C@H]3CCCC[C@H]3N)ncc2C(N)=O)c1.Cl	0
CN(C)c1ncnc2nc[nH]c12	17
O=C(O)C(F)(F)F.O=c1[nH]ccc2nc(N[C@@H]3CCNC3)nc(Nc3ccc4c(c3)S(=O)(=O)CC4)c12	88

Problem: Record request: %Inh value, item COC(=O)Nc1nc2ccc(Oc3ccc(CC(=O)Nc4cc(C(F)(F)F)ccc4F)cc3)cc2[nH]1
Solution: 0

Problem: Record request: %Inh value, item O=C(Nc1c(F)cccc1F)c1cc(C(=O)c2ccccc2F)c[nH]1
Solution: 0

* * *

Measured %Inh values are reported for all entries that follow.
- System: NEK5
- details: concentration: 1 μM, replicates: in singlicate; n = 1
# unit: % | format: bare number

CN(c1ccc(F)c(NC(=O)c2cccc(OC(C)(C)C#N)c2Cl)c1)c1ccc2nc(NC(=O)C3CC3)sc2n1	0
Cc1cccc(Nc2nc(N[C@H]3CCCC[C@H]3N)ncc2C(N)=O)c1.Cl	13
COc1cccc(-c2nc(-c3ccccc3)[nH]c2-c2ccncc2)c1	1

Problem: Record request: %Inh value, item CC(C)c1nc(-c2cccc(NS(=O)(=O)c3c(F)cccc3F)c2)c(-c2ccnc(Nc3ccc(N4CCOCC4)nc3)n2)s1.Cl
Solution: 0

Problem: Record request: %Inh value, item CN(C)c1ncnc2nc[nH]c12
Solution: 12

Problem: Record request: %Inh value, item COc1ccc(C)c(Nc2ccnc(Nc3ccc(-c4cnc[nH]4)cc3)n2)c1.Cl
Solution: 14

Problem: Record request: %Inh value, item NCCC(NC(=O)c1cc(Br)c(-c2ccnc3[nH]ccc23)s1)c1ccccc1.O=C(O)C(F)(F)F.O=C(O)C(F)(F)F (stereo not shown)
Solution: 96.3

* * *

- System: BMX
- details: concentration: 1 μM, replicates: in singlicate; n = 1
measured metric: %Inh (%)
# unit: % | format: bare number

O=C(Nc1n[nH]c2nc(-c3ccccc3)ccc12)C1CC1	9
COc1cccc(C2=C(Nc3cccc(O)c3)C(=O)NC2=O)c1	4
Cn1cc(-c2ccc3c(c2)CCN3C(=O)Cc2cc(F)cc(F)c2F)c2c(N)ncnc21	11
COc1ccc(C2=C(Nc3cccc(O)c3)C(=O)NC2=O)cc1	0

Proceeding to the next compound to report its %Inh.
Problem: Record request: %Inh value, item CN(C)CCNS(=O)(=O)c1ccc(-c2ccnc3[nH]ccc23)cc1
Solution: 9

* * *

- Tested on: PIKFYVE
- details: concentration: 1 μM, replicates: in singlicate; n = 1
Short version: %Inh at least 7% is y, less is n.

Some entries whose results are on file:
N#Cc1cnc2cc(-c3cnc(CNCCN4CCOCC4)s3)ccc2c1Nc1ccc(Oc2ccccc2)cc1	y
O=C(Nc1c(F)cccc1F)c1cc(C(=O)c2ccccc2F)c[nH]1	n
CC(C)c1nc(-c2ccc(F)c(NS(=O)(=O)c3c(F)cccc3F)c2)c(-c2ccnc(Nc3ccc(N4CCOCC4)nc3)n2)s1	y
CNc1nccc(-c2ccc3c(N)n[nH]c3c2)n1	n
O=C(Nc1n[nH]c2nc(-c3ccccc3)ccc12)C1CC1	y

Problem: Item Cc1ccc(O)cc1Nc1ccnc2ccc(C(C)(C)C)cc12 with %Inh of 7% or above?
Solution: y

Problem: Item N#CC1(c2cccc(C(=O)Nc3cccc(Oc4ccc5nc(NC(=O)C6CC6)sc5n4)c3)c2)CC1 with %Inh of 7% or above?
Solution: n

Problem: Item NCCC(NC(=O)c1cc(Br)c(-c2ccnc3[nH]ccc23)s1)c1ccccc1.O=C(O)C(F)(F)F.O=C(O)C(F)(F)F (stereo not shown) with %Inh of 7% or above?
Solution: y

Problem: Item Cc1ccc(-c2ccc3occ(-c4ccc(S(C)=O)cc4)c3c2)nn1 (stereo not shown) with %Inh of 7% or above?
Solution: n

Problem: Item Cc1ccc(NC(=O)c2ccnc(N3CCCCC3)c2)cc1-c1ccc(C(=O)NCC2CC2)cc1 with %Inh of 7% or above?
Solution: y

Problem: Item Cc1ccccc1CC(=O)N1CCc2cc(-c3cn(C)c4ncnc(N)c34)ccc21 with %Inh of 7% or above?
Solution: n

Problem: Item Cc1ccc(NC(=O)c2cccc(N3CCCCC3)c2)cc1-c1ccc(C(=O)NCC2CC2)cc1 with %Inh of 7% or above?
Solution: n

Problem: Item COc1cc(Nc2nccc(N3CCC(NC(=O)Nc4ccc5c(c4)OCO5)C3)n2)cc(OC)c1OC (stereo not shown) with %Inh of 7% or above?
Solution: y

Problem: Item Nc1ncnc2scc(-c3ccc(NC(=O)Cc4cc(F)ccc4F)cc3)c12.O=C(O)C(F)(F)F with %Inh of 7% or above?
Solution: n

Problem: Item COc1cccc(C2=C(Nc3cccc(O)c3)C(=O)NC2=O)c1 with %Inh of 7% or above?
Solution: n

Problem: Item Nc1ncc(-c2cn[nH]c2)c2scc(-c3ccc4c(c3)CCN4C(=O)Cc3ccccc3)c12 with %Inh of 7% or above?
Solution: n

Problem: Item Nc1cccc(-c2ccc3c(N)n[nH]c3c2)c1 with %Inh of 7% or above?
Solution: n

Problem: Item COC(=O)Nc1nc2ccc(Oc3ccc(NC(=O)Nc4cc(C(F)(F)F)ccc4F)cc3)cc2[nH]1.Cl with %Inh of 7% or above?
Solution: n

Problem: Item CN(C)c1ncnc2nc[nH]c12 with %Inh of 7% or above?
Solution: y

Problem: Item Cl.Cl.NC(CNC(=O)c1cc(Br)c(-c2ccnc3[nH]ccc23)s1)c1ccccc1 (stereo not shown) with %Inh of 7% or above?
Solution: n

Problem: Item CN(c1ccc2c(c1)nc(NCc1ccccc1)n2C)c1ccnc(Nc2ccc(CS(C)(=O)=O)cc2)n1.Cl with %Inh of 7% or above?
Solution: y

Problem: Item O=C(O)C(F)(F)F.O=c1[nH]ccc2nc(N[C@@H]3CCNC3)nc(Nc3cc(Cl)cc(Cl)c3)c12 with %Inh of 7% or above?
Solution: y

Problem: Item O=C(Nc1n[nH]c2nc(-c3ccccc3O)ccc12)C1CC1 with %Inh of 7% or above?
Solution: y

Problem: Item Fc1cc(Cl)ccc1Nc1ccnc2cc(-c3ccc(CN4CCSCC4)o3)ccc12 with %Inh of 7% or above?
Solution: n

* * *

- Test system: CDK2
- details: concentration: 1 μM, replicates: in singlicate; n = 1
Quick rule for you: %Inh under 1% gets 1 (yes), anything else gets 0 (no).

Some entries whose results are on file:
CCn1cnc2c(NCc3ccccc3)ncnc21 [SKF-96418]	1 (yes)
O=C(O)C(F)(F)F.O=c1[nH]ccc2nc(N[C@@H]3CCNC3)nc(Nc3cc(Cl)cc(Cl)c3)c12 [GSK2188764]	1 (yes)
CCOc1nccc(-c2c(-c3ccc(F)cc3)ncn2C2CCNCC2)n1 [SB-249175]	0 (no)
Cc1ccc(O)cc1Nc1ccnc2cc(-c3ccc(CN4CCCCC4)o3)ccc12 [GW557777]	1 (yes)
CCn1c(-c2nonc2N)nc2c(-c3ccccc3)ncc(OCCCN)c21.O=C(O)C(F)(F)F.O=C(O)C(F)(F)F [GSK260205]	1 (yes)

Problem: Input Cc1nn2c(=O)cc(N3CCO[C@H](C)C3)nc2n1Cc1cccc(Cl)c1Cl [GSK2373693] ; condition: %Inh strictly below 1%. Does it hold?
Solution: 0 (no)

Problem: Input COc1cc(Nc2nccc(N3CCC(NC(=O)Nc4ccc5c(c4)OCO5)C3)n2)cc(OC)c1OC (centres unmarked) [GSK1379766] ; condition: %Inh strictly below 1%. Does it hold?
Solution: 1 (yes)

Problem: Input O=C(Nc1n[nH]c2nc(-c3ccccc3)ccc12)C1CC1 [SB-708999] ; condition: %Inh strictly below 1%. Does it hold?
Solution: 0 (no)

src = paper PMC5540273
